# measurement.protocol: Selectivity index, ratio of IC50 for rat L6 cells to IC50 for chloroquine-sensitive Plasmodium falciparum NF54 erythrocytic stages
# Assay type: toxicity
# condition.notes: read-out: Ratio IC50
observable: selectivity ratio

>>> measured_result("CCC(=O)N1CCN(C(=O)c2cc(-c3ccc(CN4CCOCC4)cc3)nc3ccc(F)cc23)CC1")
12.6
>>> measured_result("O=C(NCCc1ccccn1)c1cc(-c2ccc(CN3CCOCC3)cc2)nc2ccc(F)cc12")
3.6
>>> measured_result("CCOC(=O)N1CCC(NC(=O)c2cc(-c3ccc(CN4CCOCC4)cc3)nc3ccc(F)cc23)CC1")
12.7
>>> measured_result("CC(NC(=O)c1cc(-c2ccc(CN3CCOCC3)cc2)nc2ccc(F)cc12)c1ccccc1 (racemic)")
12.9
>>> measured_result("CC(C)(C)C(=O)N1CCN(CCNC(=O)c2cc(-c3ccc(CN4CCOCC4)cc3)nc3ccc(F)cc23)CC1")
16000
>>> measured_result("CCC(=O)N1CCN(Cc2cc(-c3ccc(CN4CCOCC4)cc3)nc3ccc(F)cc23)CC1")
3.83
>>> measured_result("CC(C)(C)N1CCN(CCNC(=O)c2cc(-c3ccc(CN4CCOCC4)cc3)nc3ccc(F)cc23)CC1")
32.1
>>> measured_result("Fc1ccc2nc(-c3ccc(CN4CCOCC4)cc3)cc(CNCCN3CCN(c4ccccc4)CC3)c2c1")
732
